The measurements presented in this section are drawn from patent US11040947B2.

For each of the compounds below, state its melting point.

O=C(CCCSc1nc2ccccc2c(=O)[nH]1)Nc1ccc(OC(F)F)cc1 : 210 to 211 °C
O=C(CCCSc1nc2ccccc2c(=O)[nH]1)Nc1ccc(F)cc1 : 216 to 217 °C
O=C(CCCSc1nc2ccccc2c(=O)[nH]1)Nc1nc2ccccc2[nH]1 : > 230 °C

Hi there! I need melting point for each item below, if you can.
1. CCCc1cc(=O)nc(SCCCC(=O)Nc2ccc(F)cc2)[nH]1
2. CCCc1cc(=O)nc(SCC(=O)Nc2ccc(F)cc2)[nH]1
3. O=C(CCCSc1nc2c(c(=O)[nH]1)CCCC2)Nc1nc2ccccc2[nH]1
4. O=C(CCCSc1nc2c(c(=O)[nH]1)CCCC2)Nc1ccc(OC(F)F)cc1
5. CCCc1cc(=O)nc(SCC(=O)Nc2ccccc2)[nH]1
6. CCCc1cc(=O)nc(SCC(=O)Nc2nc3ccccc3[nH]2)[nH]1

["180 to 182 °C", "191 to 194 °C", "> 230 °C", "197 to 198 °C", "170 °C (dec.)", "217 °C (dec.)"]

====

# TARGET_DESC: proMMP-9 (Homo sapiens, UniProt P14780)
# Construct: Purified recombinant MMP-9 (50 nmol/L) or MMP-9/MMP-2PEX (50 nmol/L) was diluted in buffer
# Sequence (P14780 20-707 limits assumed): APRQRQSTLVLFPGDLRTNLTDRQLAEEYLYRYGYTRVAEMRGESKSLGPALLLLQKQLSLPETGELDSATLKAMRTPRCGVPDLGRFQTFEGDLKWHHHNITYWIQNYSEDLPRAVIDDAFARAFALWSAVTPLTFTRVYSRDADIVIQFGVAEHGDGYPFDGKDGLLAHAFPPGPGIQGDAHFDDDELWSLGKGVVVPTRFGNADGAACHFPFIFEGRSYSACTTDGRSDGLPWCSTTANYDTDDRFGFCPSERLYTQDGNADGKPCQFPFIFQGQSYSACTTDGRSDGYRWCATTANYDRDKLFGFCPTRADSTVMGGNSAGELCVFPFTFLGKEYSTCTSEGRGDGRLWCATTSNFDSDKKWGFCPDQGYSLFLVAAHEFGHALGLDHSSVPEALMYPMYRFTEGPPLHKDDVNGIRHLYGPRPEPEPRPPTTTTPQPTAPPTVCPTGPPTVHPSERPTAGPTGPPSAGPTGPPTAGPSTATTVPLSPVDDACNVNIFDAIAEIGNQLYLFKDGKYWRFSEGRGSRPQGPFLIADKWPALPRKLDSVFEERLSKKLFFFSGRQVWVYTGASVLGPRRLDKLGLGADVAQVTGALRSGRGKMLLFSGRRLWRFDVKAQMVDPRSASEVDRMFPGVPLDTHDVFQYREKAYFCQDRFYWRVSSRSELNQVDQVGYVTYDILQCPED
# TEST_SUMMARY: proMMP-9 tryptophan fluorescence blue shift binding assay
# CONDITION_LABEL: binding to proMMP-9, tryptophan fluorescence
MEASURED_ENDPOINT: log10 of Kd (log10 of the value in nM)
Values below are the log10 of the recorded Kd, with nM as the unit.

Here is how some molecules turned out for log10 of Kd.
CCCc1cc(=O)nc(SCC(=O)Nc2ccccc2)[nH]1 : 3.65
CCCc1cc(=O)nc(SCCCC(=O)Nc2ccc(OC(F)F)cc2)[nH]1 : 3.00
O=C(CCCSc1nc2ccccc2c(=O)[nH]1)Nc1ccc(OC(F)F)cc1 : 2.70

For each of the molecules below, note its log10 of Kd.
1. O=C(CCCSc1nc2ccccc2c(=O)[nH]1)Nc1nc2ccccc2[nH]1
2. O=C(CCCSc1nc2c(c(=O)[nH]1)CCCC2)Nc1ccc(OC(F)F)cc1
3. O=C(CCCSc1nc2ccccc2c(=O)[nH]1)Nc1ccc(F)cc1

1. 2.48
2. 2.78
3. 2.81

Could I get log10 of Kd for every one of these entries?
1. O=C(CCCSc1nc2ccccc2c(=O)[nH]1)Nc1ccccc1
2. O=C(CCCSc1nc2c(c(=O)[nH]1)CCCC2)Nc1ccccc1
3. O=C(CCCSc1nc2c(c(=O)[nH]1)CCCC2)Nc1ccc(F)cc1
4. O=C(CCCSc1nc2c(c(=O)[nH]1)CCCC2)Nc1nc2ccccc2[nH]1
5. CCCc1cc(=O)nc(SCCCC(=O)Nc2ccc(F)cc2)[nH]1

2.90
2.70
2.51
2.70
2.96

Dear reader, for each entry below, please note its log10 of Kd.
1. CCCc1cc(=O)nc(SCC(=O)Nc2nc3ccccc3[nH]2)[nH]1
2. CCCc1cc(=O)nc(SCC(=O)Nc2ccc(F)cc2)[nH]1
3. CCCCCCNC(=O)CCCSc1nc2ccccc2c(=O)[nH]1

1. 3.08
2. 3.58
3. 2.95
